tested on: Yap1 mRNA; assay: Dose-dependent inhibition of human Yap1 in A-431 cells (Example 6, 5,000 cells per well, RTS4814); type: cell-based; conditions: Table 53; A-431 cells, Yap1 mRNA; linear regression on a log/linear plot
Strand notation (5' to 3'): a small letter for the sugar, then the base; units joined by * are phosphorothioate-linked, units joined directly phosphodiester-linked; [ ] holds rarer units or linkages, { } end groups; capitals alone tell only the bases. k = constrained ethyl (cEt); [5mC] = 5-methylcytosine; d = 2'-deoxy (DNA)
property: pIC50
The value called pIC50 is obtained by taking minus log10 of the concentration in mol/L.

Some solved cases for reference:
INSERT INTO measurements (substance, measurement_target, quantitative_result) VALUES
  ('715490 (k[5mC]*k[5mC]*kA*dA*d[5mC]*dT*dA*dT*dT*dA*d[5mC]*dT*dT*k[5mC]*kA*kT; antisense) [compound 715490]', 'Yap1 mRNA', 5.39),
  ('715500 (kA*kA*kG*d[5mC]*d[5mC]*dT*dT*dA*dG*dA*dG*dT*d[5mC]*kA*kA*kT; antisense) [compound 715500]', 'Yap1 mRNA', 5.44),
  ('715478 (kA*k[5mC]*k[5mC]*dA*dT*dT*dA*dT*dT*dA*d[5mC]*dT*d[5mC]*k[5mC]*kT*kG; antisense) [compound 715478]', 'Yap1 mRNA', 6.40);

Briefly, pIC50 measured for 715473 (kT*k[5mC]*kT*dT*dT*dA*dT*d[5mC]*dT*dA*dG*d[5mC]*dT*kT*kG*kG; antisense) [compound 715473] : 5.89

Lab note: 715487 (kA*kT*kT*dA*d[5mC]*dT*dT*d[5mC]*dA*dT*dA*dG*d[5mC]*kT*kT*kA) [compound 715487] gave pIC50 of 6.00

What the record says about 715523 (kA*kT*k[5mC]*dA*dG*dT*dA*d[5mC]*dT*dG*dG*d[5mC]*d[5mC]*kT*kA*kT; antisense) [compound 715523] : pIC50 is 5.49

Looking up 715483 (k[5mC]*kT*k[5mC]*dT*dT*dT*dG*dG*dA*dA*dA*d[5mC]*d[5mC]*kA*kT*kT) [compound 715483] , I found its pIC50 recorded as 5.96

Query 715510 (kA*kT*kT*dT*dG*d[5mC]*dT*dG*dT*dG*d[5mC]*dT*dG*kG*kG*kA; antisense) [compound 715510] yields pIC50 of 5.62

Note to self: pIC50 recorded for 715508 (k[5mC]*kT*kG*dT*dG*d[5mC]*dT*dG*dG*dG*dA*dT*dT*kG*kA*kT; antisense) [compound 715508] was 5.46

Measured pIC50 of 715555 (kG*kT*kT*dA*dT*dT*d[5mC]*dA*dG*d[5mC]*dA*dG*d[5mC]*kT*kT*kA; antisense) [compound 715555] : 5.60

Input 715434 (kT*k[5mC]*kT*dT*dG*dT*dT*d[5mC]*dT*dT*dA*dT*dG*kG*kT*kT; antisense) [compound 715434] . Output pIC50: 5.55

The reported value for 715433 (kT*kG*kT*dT*d[5mC]*dT*dT*dA*dT*dG*dG*dT*dT*kT*kA*kT; antisense) [compound 715433] in terms of pIC50 is 5.60

----------
Assay: Tolerability in Sprague-Dawley rats, body and organ weights (Example 21)
Assay type: in vivo
Conditions: male Sprague-Dawley rats, 50 mg/kg s.c. weekly for 6 weeks (7 doses), end of study
Experimental: Terminal body weight was measured prior to necropsy. Ionis oligonucleotides that caused any changes in organ weights outside the expected range for modified oligonucleotides were excluded from further studies.
Marks after values point to notes of the source that are not given here. Strand notation (5' to 3'): a small letter for the sugar, then the base; units joined by * are phosphorothioate-linked, units joined directly phosphodiester-linked; [ ] holds rarer units or linkages, { } end groups; capitals alone tell only the bases. e = 2'-O-(2-methoxyethyl) (MOE); k = constrained ethyl (cEt); [5mC] = 5-methylcytosine; d = 2'-deoxy (DNA); m = 2'-O-methyl
Reported Liver weight values for the following substances.

INSERT INTO results (substance, result) VALUES
  ('1198440 (AAGTGTATGTCAGAAG; cEt, 2''-MOE, 5-methylcytosine, phosphorothioate modifications, further chemistry not given here) [compound 1198440]', '18 g');

Query 1200857 (kA*kG*kT*dG*dT*mA*dT*dG*dT*d[5mC]*dA*dG*dA*kA*kG*kA; antisense) [compound 1200857] yields Liver weight of 19 g

Recorded Liver weight (substance 1198312 (kG*k[5mC]*kA*d[5mC]*dT*dT*dT*dT*dA*d[5mC]*dA*dT*kT*eA*kG*eG) [compound 1198312] ): 19 g

Note to self: Liver weight recorded for 1198612 (kA*kA*kG*dT*dG*dT*dA*dT*dG*dT*d[5mC]*dA*kG*kA*kA*eG) [compound 1198612] was 17 g

----------
Measured Liver weight, listed per entry for reference.
test: Tolerability in Balb/c mice, body and organ weights (Example 11); type: in vivo; conditions: 50 mg/kg subcutaneously twice a week for four weeks, end of study
Strand notation (5' to 3'): a small letter for the sugar, then the base; units joined by * are phosphorothioate-linked, units joined directly phosphodiester-linked; [ ] holds rarer units or linkages, { } end groups; capitals alone tell only the bases. k = constrained ethyl (cEt); [5mC] = 5-methylcytosine; d = 2'-deoxy (DNA)
Just the number in g, nothing appended.

Quick note, Liver weight for 715473 (kT*k[5mC]*kT*dT*dT*dA*dT*d[5mC]*dT*dA*dG*d[5mC]*dT*kT*kG*kG; antisense) [compound 715473] landed at 1.46

Documented Liver weight of 716481 (antisense kT*k[5mC]*kA*dG*d[5mC]*dA*dT*dA*dG*dA*dA*dG*dT*kA*kG*kG) [compound 716481] : 1.99

----------
test system: Yap1 mRNA; test: Antisense inhibition of human Yap1 in A-431 cells by cEt gapmers, single dose (Example 2, RTS4814); type: cell-based; conditions: Yap1 mRNA as percent of untreated control; A-431 cells; 3-10-3 cEt gapmers targeting SEQ ID NO.: 1, and 2; Table 30
Strand notation (5' to 3'): a small letter for the sugar, then the base; units joined by * are phosphorothioate-linked, units joined directly phosphodiester-linked; [ ] holds rarer units or linkages, { } end groups; capitals alone tell only the bases. k = constrained ethyl (cEt); [5mC] = 5-methylcytosine; d = 2'-deoxy (DNA)
Param threshold (60 % UTC) applies to YAP1 (% UTC); output true (1) when value >= threshold, false (0) when value < threshold.

Observe how each entry below is paired with its result.
INSERT INTO measurements (substance, group_label) VALUES
  ('1074352 (antisense k[5mC]*kA*kT*dG*d[5mC]*dT*dT*dA*dG*dT*d[5mC]*d[5mC]*dA*k[5mC]*kT*kG) [compound 1074352]', 'true (1)'),
  ('1074256 (antisense k[5mC]*kA*k[5mC]*dT*dG*dG*dT*dG*dG*dA*d[5mC]*dT*dG*kG*kT*kG) [compound 1074256]', 'true (1)'),
  ('1075536 (kT*kT*kA*dA*dT*dT*dA*d[5mC]*d[5mC]*d[5mC]*dA*dA*dG*kG*kA*k[5mC]; antisense) [compound 1075536]', 'false (0)'),
  ('1076400 (antisense kG*kT*kT*dA*dA*dA*dA*dG*d[5mC]*d[5mC]*dG*dT*dG*kA*kA*kA) [compound 1076400]', 'false (0)'),
  ('1075920 (antisense kA*kA*kA*dG*dA*dA*dA*dG*d[5mC]*dT*dG*d[5mC]*dG*k[5mC]*kA*k[5mC]) [compound 1075920]', 'true (1)');

Lookup: Answer whether YAP1 (% UTC) of 1075376 (antisense k[5mC]*k[5mC]*kT*dA*dA*dA*dT*dA*dT*d[5mC]*dA*dA*d[5mC]*kT*k[5mC]*k[5mC]) [compound 1075376] is greater than or equal to 60 % UTC.
Found: true (1)

----------
system: Yap1 mRNA; experiment: Antisense inhibition of human Yap1 in A-431 cells by cEt gapmers, single dose (Example 2, RTS4814); type: cell-based; settings: Table 20; Yap1 mRNA, percent of untreated control; 3-10-3 cEt gapmers targeting SEQ ID NO.: 1 and 2
Strand notation (5' to 3'): a small letter for the sugar, then the base; units joined by * are phosphorothioate-linked, units joined directly phosphodiester-linked; [ ] holds rarer units or linkages, { } end groups; capitals alone tell only the bases. k = constrained ethyl (cEt); [5mC] = 5-methylcytosine; d = 2'-deoxy (DNA)
property: YAP1 (% UTC)
Output spec: scalar in % UTC, unitless text.

These recorded examples may help you get a feel for the data.
INSERT INTO measurements (substance, property, quantitative_result) VALUES
  ('1076230 (kG*kA*kA*dT*dT*dA*dA*d[5mC]*d[5mC]*dT*d[5mC]*dA*dG*kT*kG*kA; antisense) [Compound 1076230]', 'YAP1 (% UTC)', 50),
  ('1074694 (antisense k[5mC]*k[5mC]*k[5mC]*d[5mC]*d[5mC]*d[5mC]*d[5mC]*d[5mC]*d[5mC]*dA*dA*dA*d[5mC]*kT*kT*kT) [Compound 1074694]', 'YAP1 (% UTC)', 79),
  ('1075238 (antisense k[5mC]*kT*kT*dA*dA*dA*d[5mC]*dA*dG*dG*dT*dG*d[5mC]*k[5mC]*kA*kA) [Compound 1075238]', 'YAP1 (% UTC)', 24),
  ('1074982 (antisense kA*k[5mC]*k[5mC]*dT*dT*dT*dT*dA*dT*dT*dG*d[5mC]*d[5mC]*kA*kG*kT) [Compound 1074982]', 'YAP1 (% UTC)', 13),
  ('1074214 (antisense kT*k[5mC]*k[5mC]*dG*dG*d[5mC]*dG*dG*d[5mC]*dT*dT*dG*dA*kA*kG*kA) [Compound 1074214]', 'YAP1 (% UTC)', 89);

The value of YAP1 (% UTC) measured for the substance 1076198 (k[5mC]*kT*kA*dT*dT*dA*dT*d[5mC]*dA*dA*dG*dG*dG*kA*kA*kT; antisense) [Compound 1076198] turned out to be 81

The measured YAP1 (% UTC) associated with 1076358 (kG*kT*kT*dT*dA*dA*d[5mC]*dA*dA*dA*d[5mC]*dT*dT*kG*kT*kA; antisense) [Compound 1076358] reads 43

Looking up 1076454 (kT*kA*kA*dA*d[5mC]*dT*dA*dA*dT*d[5mC]*d[5mC]*d[5mC]*dA*kT*kA*kT; antisense) [Compound 1076454] , I see its YAP1 (% UTC) listed as 35

Entry 1076262 (kA*kG*kA*d[5mC]*dA*dA*dT*dA*dG*dT*d[5mC]*dT*dG*kG*kG*k[5mC]; antisense) [Compound 1076262] , YAP1 (% UTC) reported as 41

response.value for 1074790 (k[5mC]*kA*kT*d[5mC]*dA*dA*d[5mC]*d[5mC]*dA*dT*dA*dA*dG*kT*kA*kG; antisense) [Compound 1074790] (field: YAP1 (% UTC)) = 28

Lab book: YAP1 (% UTC) of 1075814 (kT*kA*kT*dA*dA*dA*dG*d[5mC]*dA*dG*dG*dG*d[5mC]*kA*kT*kT; antisense) [Compound 1075814] noted as 47

Input 1074342 (antisense k[5mC]*kA*kT*d[5mC]*d[5mC]*d[5mC]*dG*dG*dG*dA*dG*dA*dA*kG*kA*k[5mC]) [Compound 1074342] . Output YAP1 (% UTC): 56
